systemTested: T1, FZD7 CRD (Homo sapiens, UniProt O75084)
T1 construct: D45-S169; GPI anchor signal (C); expressed in transfected cells; host or cells: CHO cells, lentiviral pLenti-puro
testName: Immunofluorescence of anti-FZD5 Fab binding to CHO cells overexpressing Frizzled CRD
Set-up: key: −: no binding; +: very weak binder; ++: weak binder; +++: good binder; ++++: very good binder
readoutType: Immunofluorescence binding, Frizzled CRD overexpressed on CHO cells: FZD7

[
  {
    "molecule": "Fab-2918: anti-FZD5 Fab with antibody variable region Fv-2918; CDR SEQ ID NOs: 35, 36, 57, 96, 133, 169 (antibody, V domains shown) VH: EVQLVESGGGLVQPGGSLRLSCAASGFNLSYSSIHWVRQAPGKGLEWVASIYSSYSSTSYADSVKGRFTISADTSKNTAYLQMNSLRAEDTAVYYCARFGYWAIDYWGQGTLVTVSS VL: DIQMTQSPSSLSASVGDRVTITCRASQSVSSAVAWYQQKPGKAPKLLIYSASSLYSGVPSRFSGSRSGTDFTLTISSLQPEDFATYYCQQAFGASLFTFGQGTKVEIK",
    "result": "+"
  },
  {
    "molecule": "Fab-2923: anti-FZD5 Fab with antibody variable region Fv-2923; CDR SEQ ID NOs: 35, 36, 62, 100, 138, 162 (antibody, V domains shown) VH: EVQLVESGGGLVQPGGSLRLSCAASGFNLYYYYMHWVRQAPGKGLEWVASIYSSSGSTSYADSVKGRFTISADTSKNTAYLQMNSLRAEDTAVYYCARGAMDYWGQGTLVTVSS VL: DIQMTQSPSSLSASVGDRVTITCRASQSVSSAVAWYQQKPGKAPKLLIYSASSLYSGVPSRFSGSRSGTDFTLTISSLQPEDFATYYCQQWYGYSALITFGQGTKVEIK",
    "result": "−"
  }
]
